Some molecules, each annotated with its measured MBC.
# System: Staphylococcus aureus
# MEASUREMENT NOTES: Bactericidal activity against methicillin-resistant Staphylococcus aureus PU 32 harboring i-ermA gene incubated for 16 to 20 hrs by CLSI based broth microdilution method
# Assay type: functional
# EXPERIMENTAL CONTEXT: time 16-20 hrs
MEASUREMENT LABEL: MBC

MOLECULE: CC[C@H]1OC(=O)[C@H](C)[C@@H](OC(=O)CCNCCCCNc2cc3c(cc2F)c(=O)c(C(=O)O)cn3C2CC2)[C@H](C)[C@@H](O[C@@H]2O[C@H](C)C[C@H](N(C)C)[C@H]2O)[C@](C)(OC)C[C@@H](C)/C(=N\OC/C=C/c2cncc(C(N)=O)c2)[C@H](C)[C@H]2OC(=O)O[C@@]21C
READING: 32 µg/mL
--
MOLECULE: CC[C@H]1OC(=O)[C@H](C)[C@@H](OC(=O)CCNCCCNc2cc3c(=O)c(C(=O)O)cn(C4CC4)c3cc2Cl)[C@H](C)[C@@H](O[C@@H]2O[C@H](C)C[C@H](N(C)C)[C@H]2O)[C@](C)(OC)C[C@@H](C)/C(=N\OC)[C@H](C)[C@H]2OC(=O)O[C@@]21C
READING: > 256 µg/mL
--
MOLECULE: CC[C@H]1OC(=O)[C@H](C)[C@@H](OC(=O)CCNCCCCCCNc2cc3c(cc2F)c(=O)c(C(=O)O)cn3C2CC2)[C@H](C)[C@@H](O[C@@H]2O[C@H](C)C[C@H](N(C)C)[C@H]2O)[C@](C)(OC)C[C@@H](C)/C(=N\OC)[C@H](C)[C@H]2OC(=O)O[C@@]21C
READING: 16 µg/mL
--
MOLECULE: CC[C@H]1OC(=O)[C@H](C)[C@@H](OC(=O)CCN2CCN(c3nc4c(cc3F)c(=O)c(C(=O)O)cn4CC)CC2)[C@H](C)[C@@H](O[C@@H]2O[C@H](C)C[C@H](N(C)C)[C@H]2O)[C@](C)(OC)C[C@@H](C)/C(=N\OCC#Cc2cncc(C(=O)NC)c2)[C@H](C)[C@H]2OC(=O)O[C@@]21C
READING: > 256 µg/mL
--
MOLECULE: CC[C@H]1OC(=O)[C@H](C)[C@@H](OC(=O)CCNCCCCNc2cc3c(cc2F)c(=O)c(C(=O)O)cn3C2CC2)[C@H](C)[C@@H](O[C@@H]2O[C@H](C)C[C@H](N(C)C)[C@H]2O)[C@](C)(OC)C[C@@H](C)/C(=N\OCC#Cc2cncc(NC(C)=O)c2)[C@H](C)[C@H]2OC(=O)O[C@@]21C
READING: 64 µg/mL
--
MOLECULE: CC[C@H]1OC(=O)[C@H](C)[C@@H](OC(=O)CCNCCCCNc2cc3c(cc2F)c(=O)c(C(=O)O)cn3C2CC2)[C@H](C)[C@@H](O[C@@H]2O[C@H](C)C[C@H](N(C)C)[C@H]2O)[C@](C)(OC)C[C@@H](C)/C(=N\OC)[C@H](C)[C@H]2OC(=O)O[C@@]21C
READING: 8 µg/mL
--
MOLECULE: CC[C@H]1OC(=O)[C@H](C)[C@@H](OC(=O)CCNCCCCNc2cc3c(cc2F)c(=O)c(C(=O)O)cn3C2CC2)[C@H](C)[C@@H](O[C@@H]2O[C@H](C)C[C@H](N(C)C)[C@H]2O)[C@](C)(OC)C[C@@H](C)/C(=N\OCC#Cc2cncc(C(N)=O)c2)[C@H](C)[C@H]2OC(=O)O[C@@]21C
READING: 128 µg/mL
--
MOLECULE: CC[C@H]1OC(=O)[C@H](C)[C@@H](OC(=O)CCNCCCCCCCCNc2cc3c(=O)c(C(=O)O)cn(C4CC4)c3cc2Cl)[C@H](C)[C@@H](O[C@@H]2O[C@H](C)C[C@H](N(C)C)[C@H]2O)[C@](C)(OC)C[C@@H](C)/C(=N\OC)[C@H](C)[C@H]2OC(=O)O[C@@]21C
READING: > 256 µg/mL
--
MOLECULE: CC[C@H]1OC(=O)[C@H](C)[C@@H](OC(=O)CCN2CCN(c3cc4c(cc3F)c(=O)c(C(=O)O)cn4C3CC3)CC2)[C@H](C)[C@@H](O[C@@H]2O[C@H](C)C[C@H](N(C)C)[C@H]2O)[C@](C)(OC)C[C@@H](C)/C(=N\OCC#Cc2cncc(C(N)=O)c2)[C@H](C)[C@H]2OC(=O)O[C@@]21C
READING: > 64 µg/mL
--
MOLECULE: CC[C@H]1OC(=O)[C@H](C)[C@@H](OC(=O)CCN2CCN(c3cc4c(cc3F)c(=O)c(C(N)=O)cn4C3CC3)CC2)[C@H](C)[C@@H](O[C@@H]2O[C@H](C)C[C@H](N(C)C)[C@H]2O)[C@](C)(OC)C[C@@H](C)/C(=N\OCC#Cc2cncc(C(=O)NC)c2)[C@H](C)[C@H]2OC(=O)O[C@@]21C
READING: > 256 µg/mL
--
MOLECULE: CC[C@H]1OC(=O)[C@H](C)[C@@H](OC(=O)Cc2ccccn2)[C@H](C)[C@@H](O[C@@H]2O[C@H](C)C[C@H](N(C)C)[C@H]2O)[C@](C)(OC(=O)CCN2CCN(c3c(F)cc4c(=O)c(C(=O)O)cn(C5CC5)c4c3OC)CC2C)C[C@@H](C)CN(C)[C@H](C)[C@@H](O)[C@]1(C)O (stereo partly drawn)
READING: > 256 µg/mL
--
MOLECULE: CC[C@H]1OC(=O)[C@H](C)[C@@H](OC(=O)CCN2CCN(c3cc4c(cc3F)c(=O)c(C(=O)O)cn4CC)CC2)[C@H](C)[C@@H](O[C@@H]2O[C@H](C)C[C@H](N(C)C)[C@H]2O)[C@](C)(OC)C[C@@H](C)/C(=N\OCC#Cc2cncc(C(=O)NC)c2)[C@H](C)[C@H]2OC(=O)O[C@@]21C
READING: > 256 µg/mL
--
MOLECULE: CC[C@H]1OC(=O)[C@H](C)[C@@H](OC(=O)CCN2CCN(c3cc4c(cc3F)c(=O)c(C(=O)O)cn4C3CC3)CC2)[C@H](C)[C@@H](O[C@@H]2O[C@H](C)C[C@H](N(C)C)[C@H]2O)[C@](C)(OC)C[C@@H](C)/C(=N\OC)[C@H](C)[C@H]2OC(=O)O[C@@]21C
READING: > 256 µg/mL
